Test system: RIVA
assay-notes: growth inhibition by drug plus 177Lu-lilotomab satetraxetan (1 - RLU/untreated control) (fraction); higher = stronger inhibition
settings: 100 nM; time (day): 3; 177Lu-lilotomab satetraxetan 0.5 ug/ml
measurement-name: growth inhibition by drug plus 177Lu-lilotomab satetraxetan
Write the number on its own, no unit after it.

> print(dat)
                                   compound  data.value
1  Cc1ccc(-c2cc(C(F)(F)F)nn2-c2ccc(S(N)(=O)=O)cc2)cc1 [Celecoxib]       0.373
2  COc1ncc(-c2ccc3nccc(-c4ccnnc4)c3c2)cc1NS(=O)(=O)c1ccc(F)cc1F       0.937
3  COc1cc(Nc2c(C#N)cnc3cc(OCCCN4CCN(C)CC4)c(OC)cc23)c(Cl)cc1Cl [Bosutinib (SKI-606)]       0.263
4    N#Cc1ccc(NC(=O)Nc2ccccc2Br)c2n[nH]nc12       0.463
5  O=C(Nc1ncc([N+](=O)[O-])s1)c1ccc([N+](=O)[O-])c(Cl)c1       0.605

Proceed to the following item.
Prompt line: Hello, I am looking for reported growth inhibition by drug plus 177Lu-lilotomab satetraxetan with RIVA for CC1(COc2ccc3c(c2)ncn3-c2ccc3cccc(N4CCC(N)CC4)c3n2)COC1 . Could you help?
Response line: 0.449
